target-or-system: Cannabinoid receptor 2 (Homo sapiens, UniProt P34972)
Sequence (P34972 whole entry): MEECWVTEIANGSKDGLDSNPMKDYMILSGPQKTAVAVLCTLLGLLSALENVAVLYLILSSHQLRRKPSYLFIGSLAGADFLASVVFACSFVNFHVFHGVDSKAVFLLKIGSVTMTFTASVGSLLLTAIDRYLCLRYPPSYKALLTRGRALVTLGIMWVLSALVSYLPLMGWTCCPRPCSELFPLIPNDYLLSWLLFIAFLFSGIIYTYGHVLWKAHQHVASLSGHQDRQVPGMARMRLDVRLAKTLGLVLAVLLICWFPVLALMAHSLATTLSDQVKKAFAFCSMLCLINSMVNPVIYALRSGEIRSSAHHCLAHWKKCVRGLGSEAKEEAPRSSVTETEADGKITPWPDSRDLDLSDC
experimental-protocol: fluorescence saturation binding on CHO-K1-hCB2 cells
No end group written: not given here. fluorescein = fluorescein, fluorescent label at the C-terminus
measure-name: pKd
# log scale: pKd equals minus log10 of the concentration in mol/L

-- ask Given RVDPVNFKLLSH-fluorescein [Pepcan-F4] , state its recorded pKd.
-- reply 6.91

The measured values listed here are drawn from paper PMC5573408.
